# protocol_details: Partition coefficient (logP)
# Type: physicochemical
# particulars: octanol/water; read-out: logP
property: logP

[[record]]
molecule = "CCCCOC(=O)Cc1cc2c(cc1/C(=N/NC(=O)NCC)c1ccc(N)cc1)OCO2"
endpoint_result = 4.24

[[record]]
molecule = "CNC(=O)NC(=O)Cc1cc2c(cc1Cc1ccc(N)cc1)OCO2"
endpoint_result = 2.23

[[record]]
molecule = "CNC(=O)N1N=C(c2ccc(N)cc2)c2cc3c(cc2CC1=O)OCO3"
endpoint_result = 1.99

[[record]]
molecule = "CNC(=O)NC(=O)Cc1cc2c(cc1C(=O)c1ccc(N)cc1)OCO2"
endpoint_result = 1.82

[[record]]
molecule = "COC(=O)Cc1cc2c(cc1Cc1ccc(N)cc1)OCO2"
endpoint_result = 2.68

[[record]]
molecule = "CCNC(=O)N/N=C(\\c1ccc(N)cc1)c1cc2c(cc1CC(=O)OC)OCO2"
endpoint_result = 2.89

[[record]]
molecule = "CNC(=O)N/N=C(\\c1ccc(N)cc1)c1cc2c(cc1CC(=O)OC)OCO2 (stereo in doubt; 29)"
endpoint_result = 2.99

[[record]]
molecule = "CCNC(=O)N1N=C(c2ccc(N)cc2)c2cc3c(cc2CC1=O)OCO3"
endpoint_result = 2.41

